Parameter: viability, T/C. Scope: all listed entries.
Tested on: 233499-124-R-J3-PDC complex spheroid viability;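 further: spheroids exposed to the drug combinations for seven days; percent viability relative to DMSO vehicle control wells taken as 100%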
EXPERIMENTAL_DETAILS: Anticancer human tumor 233499-124-R-J3-PDC patient-derived colon adenocarcinoma cell line growth inhibition [CLK]
MEASUREMENT_SETUP: second compound 10 µM; first compound 10 µM; stronger effect = lower value
Unit % implied. Number only.

// Input: Nc1ccn(C2OC(CO)C(O)C2(F)F)c(=O)n1 (stereo not drawn) + CN1CCN(c2cc(C(=O)Nc3cc4cc(-c5cnn(C)c5)ccc4cn3)ccn2)CC1 . Output its viability, T/C only.
0.38

// Input: C=CC(=O)N1CCN(c2nc(=O)n(-c3c(C)ccnc3C(C)C)c3nc(-c4c(O)cccc4F)c(F)cc23)C(C)C1 (stereo not drawn) + CNC(=O)c1ccc(Nc2nc(OC3CCCC3)c3c(-c4ccc5nc(C)oc5c4)c[nH]c3n2)c(OC)c1 . Output its viability, T/C only.
91.2

// Input: C=C(F)C(=O)N1CCN(c2nc(OCC3CCCN3C)nc3c2CCN(c2cccc4cccc(Cl)c24)C3)CC1CC#N (stereo not drawn) + CN1CCN(c2cc(C(=O)Nc3cc4cc(-c5cnn(C)c5)ccc4cn3)ccn2)CC1 . Output its viability, T/C only.
0.72
